# target: T1, human IL-23 (human, UniProt P29460 23-328; Q9NPF7 20-189)
# T1 construct: Recombinant (Ebioscience); HIS-tagged in flow cytometry, biotinylated in some assays; also called hIL-23; rhIL-23
# T1 sequence 1: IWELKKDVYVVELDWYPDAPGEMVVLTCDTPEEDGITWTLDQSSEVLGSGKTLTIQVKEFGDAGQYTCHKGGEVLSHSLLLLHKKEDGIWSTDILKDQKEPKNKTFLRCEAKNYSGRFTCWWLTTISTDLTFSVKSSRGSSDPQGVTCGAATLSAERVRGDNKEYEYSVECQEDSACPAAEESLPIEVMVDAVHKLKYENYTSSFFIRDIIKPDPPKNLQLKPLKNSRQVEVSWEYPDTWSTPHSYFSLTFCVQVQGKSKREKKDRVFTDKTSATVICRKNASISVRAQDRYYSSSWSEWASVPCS
# T1 sequence 2: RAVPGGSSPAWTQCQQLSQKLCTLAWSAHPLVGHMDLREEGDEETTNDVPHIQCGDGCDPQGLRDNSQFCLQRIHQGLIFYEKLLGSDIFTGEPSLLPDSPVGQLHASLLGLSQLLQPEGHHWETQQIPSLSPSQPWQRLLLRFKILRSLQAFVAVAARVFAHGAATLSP
# experimental-protocol: SPR, purified scFv captured via FLAG
The following binders are listed with their measured kon values.
Enter your answer as a number in M⁻¹ s⁻¹; do not include the unit.

scFv CE-B1 (scFv, scFv-80 variant: VH F29L; not shown: proprietary C-terminal FLAG tag) scFv: QVQLVQSGAEVKKPGASVKVSCKASGYTLTDYYLHWVRQAPGQGLEWMGWIDPENGDTEYAPKFQGRVTMTTDTSTSTAYMELRSLRSDDTAVYYCNANKELRYFDVWGQGTMVTVSSGGGGSGGGGSGGGGSEIVMTQSPATLSVSPGERATLSCRASQSISINLHWYQQKPGQAPRLLIYFASQSISGIPARFSGSGSGTEFTLTISSLQSEDFAVYYCQQSNSFPLTFGGGTKVEIKR :: 310000

q: // Input: scFv BB-A9 (scFv, scFv-80 variant: VH T28A, T68S; not shown: proprietary C-terminal FLAG tag) scFv: QVQLVQSGAEVKKPGASVKVSCKASGYAFTDYYLHWVRQAPGQGLEWMGWIDPENGDTEYAPKFQGRVSMTTDTSTSTAYMELRSLRSDDTAVYYCNANKELRYFDVWGQGTMVTVSSGGGGSGGGGSGGGGSEIVMTQSPATLSVSPGERATLSCRASQSISINLHWYQQKPGQAPRLLIYFASQSISGIPARFSGSGSGTEFTLTISSLQSEDFAVYYCQQSNSFPLTFGGGTKVEIKR . Output its kon only.
a: 310000
